# experiment: yeast display, Sf9 membrane polyspecificity reagent, FACS + sequencing; frameworks hold sequencing errors

[
  {
    "sequence-data": "QVQLVESGGGLVQAGGSLRLSRAASGATFYFNAMGWYSQAHGKERELVAGITYSGDSTYYADSVKGRFTLSRDNAKNPVYLQMNSLKPEDTAVYYCAADVDYDLDGDYWGQGTQVTVSS",
    "polyreactivity (PSR sort gate)": "low polyreactivity"
  },
  {
    "sequence-data": "QVQLVESGGGLVQAGGSLRLSCAASGSTLNRNAMGWYRQAPGKERDLVAAIRVSGGSTYYADSVKGRFTISRDNAKNTVYLQMNSLKPEDTAVYYCATRYVRARWYGYWGQGTQVTVSS",
    "polyreactivity (PSR sort gate)": "high polyreactivity"
  },
  {
    "sequence-data": "QFQLVESGGGLVQAGGSLRLSCAASGSTFTNYAMGWYRQAPGKEREFVAAITFRGGRTYYADSVKGRFTISRHNAKNTVYLQLNSLKPEDTAVYYCNKRTSPKRFDYWGQGTQVTVSS",
    "polyreactivity (PSR sort gate)": "high polyreactivity"
  },
  {
    "sequence-data": "LVQLQESGGGLVLAGGGLRLSCAASGNIFTYVIMGWYRQPPGKERELVAAITYGTITNYADSVKGPFTISRDNAKNTVYLQMNCLKPEDTAVYHCAVQSPRIEPRLYYWGQGTQVTVSS",
    "polyreactivity (PSR sort gate)": "high polyreactivity"
  },
  {
    "sequence-data": "QVQLVESGGGLVQAGGSLRLSCAASGSIFQVYSMGWYRQAPGKEREFVAAISFSGGGTYYADSVKGRFTISRDNAKNTVYLQMNSMKPEDTAVYYCAADVSGWEYDYWGQGTQVTVSS",
    "polyreactivity (PSR sort gate)": "low polyreactivity"
  },
  {
    "sequence-data": "QVQLVESGGGLVQAGGSLRLSCAASGLIFSDNAMGWYRQAPGKEREFVASISDSGTTTYYADSVKGRFTISRDNAKNTVYLQMNSLKPEDTAVYDCNARPGQSGARFGYWGQGTQVTVSS",
    "polyreactivity (PSR sort gate)": "high polyreactivity"
  },
  {
    "sequence-data": "QVQLVESGGGLVQAGGSLRLSCAASGFNYGIYAMGWYRQAPGKERELVAAISRGGGSTYYADSVKGRFTISRDNAKNTVYLQMNSLKPEDTAVYYCAARYQSPYDYWGQGTQVTVSS",
    "polyreactivity (PSR sort gate)": "high polyreactivity"
  },
  {
    "sequence-data": "QFQLVESGGGLVQAGGSLRLSCAASGSIFYYNAMGWYRQAPGKEPELVAAINSGGTTYYADSVKGRFTISRDNAKNTVYVLMNSLKPEDTAVYYCAARTTRRSRYKYDYWGQGTQVSVSS",
    "polyreactivity (PSR sort gate)": "high polyreactivity"
  },
  {
    "sequence-data": "QDQLVESGGGLVQAGGSLRLSCAASGRIFGTYAMGWYRQAPGKERELVATISYSSGRTYYADSVKGRFTISRDNAKNTVYLQMNSLKPEDTAVYYCAAVGTGSSLRYDYWGQGTQVTVSS",
    "polyreactivity (PSR sort gate)": "high polyreactivity"
  },
  {
    "sequence-data": "QVQLVESGGGLVQAGGSLRLSCAASGLIFGPYAMGWYRQAPGKERELLAASWRGGSTYYADSVKGRFTISRDNAKNTVFLQMNSLKPEDTAVYYCAADVIYSLYYYWGQGTQVTVSS",
    "polyreactivity (PSR sort gate)": "low polyreactivity"
  },
  {
    "sequence-data": "QVQLVESGGGLVQAGGSLRLSCAASGLIFVDNAMGWYRQAPGKERELVAAIDSGGSTNYADSVKGRFTISRDNAKNTVYLQMNSLKPEDTAVYYCAADWIYAPWYYQESVEYYYWGQGTQVTVSS",
    "polyreactivity (PSR sort gate)": "low polyreactivity"
  }
]
